measured.on: Cannabinoid receptor 1 (Homo sapiens, UniProt P21554)
Sequence (P21554 whole entry): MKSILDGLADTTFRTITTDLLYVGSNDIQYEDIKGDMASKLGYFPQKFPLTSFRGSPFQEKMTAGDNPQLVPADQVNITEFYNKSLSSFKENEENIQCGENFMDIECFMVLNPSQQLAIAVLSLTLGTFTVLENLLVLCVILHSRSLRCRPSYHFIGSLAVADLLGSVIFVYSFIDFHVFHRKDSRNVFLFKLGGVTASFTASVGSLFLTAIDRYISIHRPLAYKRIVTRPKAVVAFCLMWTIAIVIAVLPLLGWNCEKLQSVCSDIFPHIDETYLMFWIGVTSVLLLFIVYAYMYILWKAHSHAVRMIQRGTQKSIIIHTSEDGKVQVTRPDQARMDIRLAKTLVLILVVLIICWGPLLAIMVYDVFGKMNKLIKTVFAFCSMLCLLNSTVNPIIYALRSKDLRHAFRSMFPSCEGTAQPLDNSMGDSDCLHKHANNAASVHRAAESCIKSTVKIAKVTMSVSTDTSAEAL
method.summary: ChEBML_1680109
measurement.name: EC50 (nM)
Give bare numbers, in nM.

Cannabinoid receptor 1 (Homo sapiens, UniProt P21554) / EC50 / CC(C)[C@H](NC(=O)c1nn(Cc2ccc(F)cc2)c2ccccc12)C(N)=O : value?
2.1
